# System under test: INSR (human)
# Procedure summary: radiometric filter-binding kinase assay
# Condition label: compound 10.0 µM
Measurement type: residual activity (%)
# number only, unit % dropped from output

Exercise: // returns reported residual activity for input O=C(N[C@@H](COc1ccc2[nH]c(=O)[nH]c2c1)c1ccccc1)c1cccn(Cc2ccc(F)c(F)c2)c1=O
Key: 93

Exercise: // returns reported residual activity for input CNc1nc(-c2ccc3c(N)n[nH]c3c2)cc(N2C[C@@H](C(=O)NC3CCCCC3)CC[C@H]2C)n1
Key: 89

Exercise: // returns reported residual activity for input NC(=O)c1cc(-c2ccnc(NC3CCCCC3)c2)nc(N2CCNCC2)c1
Key: 93

Exercise: // returns reported residual activity for input NCC(=O)Nc1ccc(-n2nc(C(F)(F)F)cc2-c2ccc3c(ccc4ccccc43)c2)cc1
Key: 94

Exercise: // returns reported residual activity for input CCc1cncnc1N1CCN(Cc2nc3cc(C(F)(F)F)ccc3[nH]2)CC1
Key: 96

Exercise: // returns reported residual activity for input Cc1ccc(=O)n(-c2ccccc2)c1
Key: 103

Exercise: // returns reported residual activity for input NC(=O)c1ccc(-c2ccc(Oc3cncc4sc(-c5nn[nH]n5)cc34)cc2)cc1
Key: 108

Exercise: // returns reported residual activity for input Cc1ccc2c(c1)C(=O)[C@@]1(O)CCN(c3ccccc3)C1=N2
Key: 95

Exercise: // returns reported residual activity for input CCNc1nc(Nc2cc(F)c(C(=O)N3CCOCC3)cc2OC)ncc1C(F)(F)F
Key: 2

Exercise: // returns reported residual activity for input O=C(O)c1cc(N=Nc2ccc(S(=O)(=O)Nc3ccccn3)cc2)ccc1O
Key: 97

Exercise: // returns reported residual activity for input c1ccc2c(-c3cnn4cc(-c5ccc(N6CCNCC6)cc5)cnc34)ccnc2c1
Key: 93

Exercise: // returns reported residual activity for input O=c1c(O)c(-c2ccc(O)c(O)c2)oc2cc(O)c(O)c(O)c12
Key: 62

Exercise: // returns reported residual activity for input Oc1ccc2ccccc2c1SSc1c(O)ccc2ccccc12
Key: 113

Exercise: // returns reported residual activity for input O=C1Nc2nc(-c3c(O)cccc3OCC3CC3)cc(C3CCCNC3)c2CO1 (stereo not drawn)
Key: 96

Exercise: // returns reported residual activity for input O=C1NC(=S)N[C@@H]1Cc1c[nH]c2ccccc12
Key: 103

Exercise: // returns reported residual activity for input C[C@H]1CCCC(=O)CCC/C=C/c2cc(O)cc(O)c2C(=O)O1
Key: 102

Exercise: // returns reported residual activity for input COC(=O)/C=C/C(=O)OC
Key: 60

Exercise: // returns reported residual activity for input CCCC(CCC)C(=O)O
Key: 66

Exercise: // returns reported residual activity for input Oc1ccc(/C=C/c2cc(O)cc(O)c2)cc1
Key: 50

Exercise: // returns reported residual activity for input N#Cc1c(O)c2c(-c3ccc(-c4ccccc4O)cc3)csc2[nH]c1=O
Key: 103

Exercise: // returns reported residual activity for input Cc1nc(-c2ccc(OCC(C)C)c(C#N)c2)sc1C(=O)O
Key: 96

Exercise: // returns reported residual activity for input CCn1c(-c2nonc2N)nc2cncc(CNC3CCNCC3)c21
Key: 99

Exercise: // returns reported residual activity for input Nc1cccc2c1CN(C1CCC(=O)NC1=O)C2=O (stereo not drawn)
Key: 107
